# assayed-target: Human PPARγ (Homo sapiens, UniProt P37231)
# Construct: expressed in transfected cells; host or cells: 293-T cells
# protocol-details: Activity assay on activating human PPARγ (GAL4 chimeric receptor luciferase reporter, transient transfection in 293-T cells)
# Format: cell-based
# measurement-conditions: compound 10 μM, luciferase measured 24 h after administration, control 1.4
Listed compounds paired with reported Photon number (×10^4)
measurement-name: Photon number (×10^4)

structure-notation: Cc1oc(-c2ccccc2)nc1CCOc1ccc(C[C@H](NC(=O)C=Cc2ccco2)C(=O)O)cc1
observed-result: 23.7 ×10^4

structure-notation: Cc1oc(-c2ccccc2)nc1CCOc1ccc(C[C@H](NC(=O)C=Cc2ccc(F)cc2F)C(=O)O)cc1
observed-result: 27.6 ×10^4

structure-notation: Cc1oc(-c2ccccc2)nc1CCOc1ccc(C[C@H](NC(=O)C=Cc2ccc(F)c(F)c2)C(=O)O)cc1
observed-result: 29.0 ×10^4

structure-notation: Cc1ccc(C=CC(=O)N[C@@H](Cc2ccc(OCCc3nc(-c4ccccc4)oc3C)c(Br)c2)C(=O)O)cc1
observed-result: 24.1 ×10^4

---

# assayed-target: Human PPARγ (Homo sapiens, UniProt P37231)
# Construct: expressed in transfected cells; host or cells: 293-T cells
# Sequence (P37231 238-503 limits assumed): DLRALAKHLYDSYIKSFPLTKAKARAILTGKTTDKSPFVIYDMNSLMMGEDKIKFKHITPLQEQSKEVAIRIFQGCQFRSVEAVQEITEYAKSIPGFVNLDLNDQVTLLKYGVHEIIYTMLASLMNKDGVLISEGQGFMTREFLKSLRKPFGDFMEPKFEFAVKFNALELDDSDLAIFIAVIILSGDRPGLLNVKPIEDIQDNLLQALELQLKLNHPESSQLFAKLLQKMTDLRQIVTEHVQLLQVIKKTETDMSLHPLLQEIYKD
# protocol-details: Activity assay on activating human PPARγ (GAL4 chimeric receptor luciferase reporter, transient transfection in 293-T cells)
# Type: cell-based
# measurement-conditions: compound 10 μM, vs 0.2‰ DMSO blank control
Listed molecules paired with reported Increased multiple vs control

molecule: Cc1ccc(C=CC(=O)N[C@@H](Cc2ccc(OCCc3nc(-c4ccccc4)oc3C)c(Br)c2)C(=O)O)cc1 [Example 10]
Increased multiple vs control: 17.2
//
molecule: Cc1oc(-c2ccccc2)nc1CCOc1ccc(C[C@H](NC(=O)C=Cc2ccco2)C(=O)O)cc1 [Example 9]
Increased multiple vs control: 16.9
//
molecule: Cc1oc(-c2ccccc2)nc1CCOc1ccc(C[C@H](NC(=O)C=Cc2ccc(F)cc2F)C(=O)O)cc1 [Example 8]
Increased multiple vs control: 19.7
//
molecule: Cc1oc(-c2ccccc2)nc1CCOc1ccc(C[C@H](NC(=O)C=Cc2ccc(F)c(F)c2)C(=O)O)cc1 [Example 7]
Increased multiple vs control: 20.7

---

Listed compounds paired with reported EC50
# assayed-target: Human PPARα (Homo sapiens)
# Sequence (Q07869 239-466 limits assumed): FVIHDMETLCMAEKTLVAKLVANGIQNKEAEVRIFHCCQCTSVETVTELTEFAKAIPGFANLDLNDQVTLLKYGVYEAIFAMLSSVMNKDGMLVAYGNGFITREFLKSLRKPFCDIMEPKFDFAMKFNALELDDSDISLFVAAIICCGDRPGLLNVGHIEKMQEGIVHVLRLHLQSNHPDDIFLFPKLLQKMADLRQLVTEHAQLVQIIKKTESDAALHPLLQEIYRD
# protocol-details: Activity assay on activating human PPARα (GAL4 chimeric receptor luciferase reporter, transient transfection in 293-T cells)
# measurement-conditions: activation of PPARα

compound: Cc1oc(-c2ccccc2)nc1CCOc1ccc(C[C@H](NC(=O)C=Cc2ccco2)C(=O)O)cc1 [Example 9]
EC50 / nM: 770

compound: Cc1oc(-c2ccccc2)nc1CCOc1ccc(C[C@H](NC(=O)C=Cc2ccc(F)cc2F)C(=O)O)cc1 [Example 8]
EC50 / nM: 4970
